- Experiment summary: Drug absorption test in male Han-Wister rats
- Format: in vivo
- Condition info: intragastric versus intravenous administration; doses 80, 100, 93.2, 81.1 mg/kg for Example 1, 2, 3, 4
Below, each entry is listed with its recorded F.
Measured endpoint: F

[[record]]
compound = "C=CC(=O)Nc1cc(Nc2ncnc(-c3cn(C)c4ccccc34)n2)c(OC)cc1N(C)CCN(C)C [Example 2]"
result = "29.3%"

[[record]]
compound = "C=CC(=O)Nc1cc(Nc2ncnc(-c3cn(C)c4ccccc34)n2)c(OC)cc1N(C)CCN(C)C [Example 1]"
result = "11.1%"

[[record]]
compound = "C=CC(=O)Nc1cc(Nc2ncnc(-c3cn(C)c4ccccc34)n2)c(OC)cc1N(C)CCN(C)C [Example 3]"
result = "27.0%"

[[record]]
compound = "C=CC(=O)Nc1cc(Nc2ncnc(-c3cn(C)c4ccccc34)n2)c(OC)cc1N(C)CCN(C)C [Example 4]"
result = "26.8%"


meta.source: patent US20240391902A1
